# pKd per record follows
# Target Entity: T1, mouse TF ECD-His6 (mouse, UniProt P20352 29-251)
# T1 construct: made in Expi293 cells; also called TF-His; mTF
# Experiment Notes: BLI (ForteBio Octet)
pKd: −log10 of the molar value.
Experimental Endpoint: pKd

- 43D8 (antibody, human IgG1, kappa, V domains shown, human IgG1; also called 43D8 mAb; test article) VH: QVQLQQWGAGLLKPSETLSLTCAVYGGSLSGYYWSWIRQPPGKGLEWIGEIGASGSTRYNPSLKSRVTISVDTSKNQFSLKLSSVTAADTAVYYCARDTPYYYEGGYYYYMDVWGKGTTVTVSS VL: EIVLTQSPGTLSLSPGERATLSCRASQSVSSSFLAWYQQKPGQAPRLLIYGAYSRATGIPDRFSGSGSGTDFTLTISRLEPEDFAVYYCQQAGVVPYTFGGGTKVEIKR: 8.21
- 25A3 (antibody, human IgG1, kappa, V domains shown, human IgG1) VH: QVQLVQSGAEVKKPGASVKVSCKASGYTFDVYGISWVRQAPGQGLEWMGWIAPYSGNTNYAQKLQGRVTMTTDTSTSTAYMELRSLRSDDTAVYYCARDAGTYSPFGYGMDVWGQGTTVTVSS VL: DIQMTQSPSTLSASVGDRVTITCQASQSINNWLAWYQQKPGKAPKLLIYKAYNLESGVPSRFSGSGSGTEFTLTISSLQPDDFATYYCQLFQSLPPFTFGGGTKVEIKR: 6.88
- 43B (antibody, human IgG1, V domains shown, human IgG1) VH: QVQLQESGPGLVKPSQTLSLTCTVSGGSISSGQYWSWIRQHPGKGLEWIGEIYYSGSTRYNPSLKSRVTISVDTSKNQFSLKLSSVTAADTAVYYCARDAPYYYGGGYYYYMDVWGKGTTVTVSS VL: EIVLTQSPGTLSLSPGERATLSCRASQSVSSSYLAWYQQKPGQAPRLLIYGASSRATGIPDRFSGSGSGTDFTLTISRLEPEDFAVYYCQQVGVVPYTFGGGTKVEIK: 6.79
- 43B7 (antibody, human IgG1, V domains shown, human IgG1) VH: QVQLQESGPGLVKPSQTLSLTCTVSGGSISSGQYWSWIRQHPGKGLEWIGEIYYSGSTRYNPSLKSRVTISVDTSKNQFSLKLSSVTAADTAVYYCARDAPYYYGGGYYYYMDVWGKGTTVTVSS VL: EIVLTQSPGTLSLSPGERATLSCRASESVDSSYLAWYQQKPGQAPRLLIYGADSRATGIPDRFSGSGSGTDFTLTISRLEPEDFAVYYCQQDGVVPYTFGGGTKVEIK: 6.44
- 25A5 (antibody, human IgG1, kappa, V domains shown, human IgG1) VH: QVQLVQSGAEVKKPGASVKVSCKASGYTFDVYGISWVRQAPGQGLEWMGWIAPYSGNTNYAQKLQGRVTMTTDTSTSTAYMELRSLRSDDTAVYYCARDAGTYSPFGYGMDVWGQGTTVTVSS VL: DIQMTQSPSTLSASVGDRVTITCRASESISNWLAWYQQKPGKAPKLLIYKAYSLEYGVPSRFSGSGSGTEFTLTISSLQPDDFATYYCQQFQKLPPFTFGGGTKVEIKR: 6.73
- 25G1 (antibody, human IgG1, kappa, V domains shown, human IgG1) VH: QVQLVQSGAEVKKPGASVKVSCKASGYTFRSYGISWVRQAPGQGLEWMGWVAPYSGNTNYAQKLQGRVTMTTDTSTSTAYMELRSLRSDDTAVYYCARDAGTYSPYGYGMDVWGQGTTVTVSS VL: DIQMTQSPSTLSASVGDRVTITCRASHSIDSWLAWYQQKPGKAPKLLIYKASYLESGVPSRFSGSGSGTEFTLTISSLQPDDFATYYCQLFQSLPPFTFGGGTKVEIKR: 7.47
- 25G (antibody, human IgG1, kappa, V domains shown, human IgG1) VH: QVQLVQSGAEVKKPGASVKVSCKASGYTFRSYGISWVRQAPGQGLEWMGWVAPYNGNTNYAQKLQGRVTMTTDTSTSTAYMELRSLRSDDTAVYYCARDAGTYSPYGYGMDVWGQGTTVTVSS VL: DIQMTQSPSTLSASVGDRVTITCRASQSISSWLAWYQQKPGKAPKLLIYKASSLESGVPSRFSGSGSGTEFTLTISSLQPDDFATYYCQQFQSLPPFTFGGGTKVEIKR: 6.94
- 43B1 (antibody, human IgG1, V domains shown, human IgG1) VH: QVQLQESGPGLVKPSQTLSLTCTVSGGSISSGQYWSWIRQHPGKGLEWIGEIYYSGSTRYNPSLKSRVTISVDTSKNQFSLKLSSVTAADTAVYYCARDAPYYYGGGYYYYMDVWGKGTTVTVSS VL: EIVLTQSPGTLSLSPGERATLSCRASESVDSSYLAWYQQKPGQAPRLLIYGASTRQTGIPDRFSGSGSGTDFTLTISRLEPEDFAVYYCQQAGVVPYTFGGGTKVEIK: 7.14
- 43D7 (antibody, human IgG1, kappa, V domains shown, human IgG1) VH: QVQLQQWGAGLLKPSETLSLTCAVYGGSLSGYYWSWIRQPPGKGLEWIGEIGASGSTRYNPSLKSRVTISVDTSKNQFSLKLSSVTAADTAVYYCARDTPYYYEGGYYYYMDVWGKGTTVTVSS VL: EIVLTQSPGTLSLSPGERATLSCRASDSVDSSYLAWYQQKPGQAPRLLIYGAFSRANGIPDRFSGSGSGTDFTLTISRLEPEDFAVYYCQQAGVVPYTFGGGTKVEIKR: 7.38
- 43D (antibody, human IgG1, V domains shown, human IgG1) VH: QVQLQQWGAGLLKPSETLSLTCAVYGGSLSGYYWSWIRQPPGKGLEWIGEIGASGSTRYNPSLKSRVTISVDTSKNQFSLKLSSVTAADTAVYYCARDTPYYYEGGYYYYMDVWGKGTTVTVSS VL: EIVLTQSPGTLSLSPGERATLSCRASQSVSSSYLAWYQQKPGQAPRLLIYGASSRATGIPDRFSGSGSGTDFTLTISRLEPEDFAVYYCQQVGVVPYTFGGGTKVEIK: 6.55
